Data provenance is patent US20110038881A1.

SYSTEM NAME: HLA-DRB1*0401 (human)
PROTOCOL DETAILS: competition binding
CONDITION CONTEXT: modification not given
Quick reference: pIC50 of the listed items.
// pIC50: -log10(molar conc.)

Below: 4 binders and their reported pIC50.
[[record]]
binder = "VGYVDDTQFVRFDSD [p6]"
numeric_result = 4.01

[[record]]
binder = "RCWALSFYPAEITLT [p40]"
numeric_result = 5.70

[[record]]
binder = "HKWEAAHVAEQLRAY [p30]"
numeric_result = 6.93

[[record]]
binder = "RGYHQYAYDGKDYIA [p22]"
numeric_result = 4.09


Proceed to the following item.
stdin: Look up and report measured pIC50 for this entry: RKVKAHSQTHRVDLG [p12]
stdout: 4.00
